# Tested on: Saccharomyces cerevisiae;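 also: PSI is a weighted mean of sequencing reads over stability bins, variants kept only with over 10 reads, mCherry proximal and sfGFP distal, peptide attached via GGGS linker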
# Protocol Summary: protein stability index of tFT-peptide fusion (C-terminal peptide) (PSI (0-1 scale)); higher = more stable (slower turnover)
# Measurement Conditions: genetic background: das1 deletion; temperature: 30 C
Quantity Measured: protein stability index

> print(dat)
    input.sequence        quantity.measured  result
 1    PPSPPLLFHFPP  protein stability index   0.661
 2    LRCRAATSRTVS  protein stability index   0.673
 3    KRMVEKNKKKIN  protein stability index   0.613
 4    RSLRVLLPLYFR  protein stability index   0.234
 5    MWFFFICYFLSV  protein stability index   0.246
 6    FFPSFGLFLCPV  protein stability index   0.366
 7    LFTRWSILFKLF  protein stability index   0.559
 8    YVVYLQVCWMRS  protein stability index   0.134
 9    FLLLVFGLLIDS  protein stability index   0.246
10    VVPWLGYVSCFS  protein stability index   0.357
11    PSPHRAPPGGHP  protein stability index   0.664
12    GFLGMFFFWFAL  protein stability index   0.463
13    YSMLGKLVRLVT  protein stability index   0.512
14    GGGGMGRRVGVG  protein stability index   0.396
15    SVPCWVFLFCLA  protein stability index   0.281
16    CLLDVVMVVERG  protein stability index   0.347
17    LPILFPAALRLY  protein stability index   0.521
18    KFFRSWVLTSPA  protein stability index   0.427
19    WLPFFPLSLRGV  protein stability index   0.412
